- Test system: AsPC-1/Cas9 cell line (human pancreatic cancer cell line AsPC-1)
- measurement.notes: AsPC-1/Cas9 growth inhibition assay
- Type: cell-based
- recorded.conditions: 5 days culture, CellTiter Glo 2.0, read-out: IC50 (Absolute IC50, 50% inhibition of cell growth)
Consider the following molecules and their measured IC50 readings.
Please reply with the bare figure in nM and do not write the unit itself.

# molecule, subject.of.test, assay.readout, reported.measurement
rows = [
    ("Cc1cc(-c2ccc3nc(N=S(C)(C)=O)nc(C(CO)(OC4CCC4)c4ccccc4)c3c2)cn(C)c1=O (stereo not shown)", "AsPC-1/Cas9 cell line (human pancreatic cancer cell line AsPC-1)", "IC50", 0.043),
]

IN: Could you tell me which IC50 is on file for C[C@@H]1CN(C2CCN(c3nc(C(CN)(OC4CC4)c4ccccc4)c4cc(-c5cn(C)c(=O)c6[nH]ccc56)ccc4n3)CC2)[C@@H](C)CN1 (stereo partly shown) ?
OUT: 0.037

IN: Follow-up entry: Cc1cc(-c2ccc3nc(N)nc([C@@](CO)(OC4CC4)c4ccccc4)c3c2)cn(C)c1=O
OUT: 0.035

IN: Another molecule to check: COc1ccc(CC(CO)(c2ccccn2)c2nc(N=S(C)(C)=O)nc3ccc(-c4cc(C)c(=O)n(C)c4)cc23)cc1F (stereo not shown)
OUT: 0.061

IN: Quick one: CCOCCC(CO)(c1ccccn1)c1nc(N)nc2ccc(-c3cc(C)c(=O)n(C)c3)cc12 (stereo not shown)
OUT: 0.038

IN: C[C@@H]1CN(CC2CCN(c3nc(C(CN)(OC4CC4)c4ccccc4)c4cc(-c5cn(C)c(=O)c6[nH]ccc56)ccc4n3)CC2)[C@@H](C)CN1 (stereo partly shown) ?
OUT: 0.023

IN: Repeat with CN1CCC(Oc2nc(C(CO)(OC3CC3)c3ccccc3)c3cc(-c4cn(C)c(=O)c5c4COC5)ccc3n2)CC1 (stereo not shown)
OUT: 0.038
